tested on: Arterial blood pressure (ABP); test: In vivo hypotensive activity, arterial blood pressure (ABP); parameters: species or system guinea pig; conditions: intraduodenal; arterial blood pressure lowering; ED20, reduces ABP by 20%

[
  {
    "MOLECULE": "CCCOc1nc(N)c2ncn(C3C=CCCC3)c2n1 (stereo not shown) [n-C3 H7 O / drawing 31]",
    "ED20 / mg/kg": 2.4
  },
  {
    "MOLECULE": "CCCOc1nc(N)c2ncn(C3CCCCC3)c2n1 [n-C3 H7 O / drawing 30, 9-Cyclohexyl-2-n-propoxy-9H-adenine]",
    "ED20 / mg/kg": 18
  },
  {
    "MOLECULE": "CCCCOc1nc(N)c2ncn(C3CCCCC3)c2n1 [n-C4 H9 O / drawing 30, 2-n-Butoxy-9-cyclohexyl-9H-adenine]",
    "ED20 / mg/kg": 8.3
  },
  {
    "MOLECULE": "CCOc1nc(N)c2ncn(C3C=CCCC3)c2n1 (stereo not shown) [C2 H5 O / drawing 31, 9-(2-Cyclohexenyl)-2-ethoxy-9H-adenine]",
    "ED20 / mg/kg": 12
  }
]

---

Tested on: Arterial blood pressure (ABP)
Assay: In vivo hypotensive activity, arterial blood pressure (ABP)
Parameters: species or system guinea pig
Settings: intravenous; arterial blood pressure lowering; ED20, reduces ABP by 20%
Experimental: Pharmac., 21, 379 (1969). The trachea of anesthetized guinea pig was cannulated and the ITP recorded on a polygraph under artificial ventilation. Arterial blood pressure (ABP; measure of hypotensive activity) was also measured during the experiment. Data was obtained for both intravenous and intraduodenal administration.

[
  {
    "COMPOUND": "CCCCCCOc1nc(N)c2ncn(C3CCCCC3)c2n1 [n-C6 H13 O / drawing 30, 2-n-Hexyloxy-9-cyclohexyl-9H-adenine]",
    "ED20": "> 3 mg/kg"
  },
  {
    "COMPOUND": "Nc1nc(Cl)nc2c1ncn2C1C=CCCC1 (stereo not shown) [Cl / drawing 31, 2-Chloro-9-(2-cyclohexenyl)-9H-adenine]",
    "ED20": "2.5 mg/kg"
  },
  {
    "COMPOUND": "CCCCCOc1nc(N)c2ncn(C3C=CCCC3)c2n1 (stereo not shown) [n-C5 H11 O / drawing 31]",
    "ED20": "> 3 mg/kg"
  },
  {
    "COMPOUND": "CCOc1nc(N)c2ncn(C3C=CCCC3)c2n1 (stereo not shown) [C2 H5 O / drawing 31, 9-(2-Cyclohexenyl)-2-ethoxy-9H-adenine]",
    "ED20": "4.0 mg/kg"
  },
  {
    "COMPOUND": "CCCOc1nc(N)c2ncn(C3CCCCC3)c2n1 [n-C3 H7 O / drawing 30, 9-Cyclohexyl-2-n-propoxy-9H-adenine]",
    "ED20": "4.4 mg/kg"
  },
  {
    "COMPOUND": "CCOc1nc(N)c2ncn(C3CCCCC3)c2n1 [C2 H5 O / drawing 30, 2-Ethoxy-9-cyclohexyl-9H-adenine]",
    "ED20": "2.5 mg/kg"
  },
  {
    "COMPOUND": "CCCCCOc1nc(N)c2ncn(C3CCCCC3)c2n1 [n-C5 H11 O / drawing 30, 2-n-Pentyloxy-9-cyclohexyl-9H-adenine]",
    "ED20": "> 3 mg/kg"
  },
  {
    "COMPOUND": "CCCCCCOc1nc(N)c2ncn(C3C=CCCC3)c2n1 (stereo not shown) [n-C6 H13 O / drawing 31]",
    "ED20": "2.7 mg/kg"
  },
  {
    "COMPOUND": "CCCCOc1nc(N)c2ncn(C3C=CCCC3)c2n1 (stereo not shown) [n-C4 H9 O / drawing 31, 9-(2-Cyclohexenyl)-2-n-butoxy-9H-adenine]",
    "ED20": "> 3 mg/kg"
  },
  {
    "COMPOUND": "CCCCOc1nc(N)c2ncn(C3CCCCC3)c2n1 [n-C4 H9 O / drawing 30, 2-n-Butoxy-9-cyclohexyl-9H-adenine]",
    "ED20": "4.4 mg/kg"
  },
  {
    "COMPOUND": "CC(C)COc1nc(N)c2ncn(C3CCCCC3)c2n1 [isO-C4 H9 O / drawing 30, 2-Isobutoxy-9-cyclohexyl-9H-adenine]",
    "ED20": "> 3 mg/kg"
  },
  {
    "COMPOUND": "CC(C)COc1nc(N)c2ncn(C3C=CCCC3)c2n1 (stereo not shown) [iso-C4 H9 O / drawing 31]",
    "ED20": "2.4 mg/kg"
  },
  {
    "COMPOUND": "CCCOc1nc(N)c2ncn(C3C=CCCC3)c2n1 (stereo not shown) [n-C3 H7 O / drawing 31]",
    "ED20": "2.0 mg/kg"
  }
]

Data origin, for the record: patent US4172829A
